Collected MIC Esche--richin coil NIHJ values appear next to each entry.
System: Escherichia coli NIHJ
experiment summary: MIC, plate method, standard strains
Type: cell-based
experimental parameters: Table 3, standard strain; unit assumed

Below are worked cases with known answers.
CCCCCCN1CCN(C(=O)NC(C(=O)NC2C(=O)N3C2SC(C)(C)C3C(=O)O)c2ccccc2)C(=O)C1=O (single isomer, unassigned) ... < 0.1 mg/L
CN1CCN(C(=O)NC(C(=O)NC2C(=O)N3C2SC(C)(C)C3C(=O)O)c2ccc(O)cc2)C(=O)C1=O (single isomer, unassigned) ... < 0.4 mg/L
CCCCCCCCN1CCN(C(=O)NC(C(=O)NC2C(=O)N3C2SC(C)(C)C3C(=O)OCOC)c2ccccc2)C(=O)C1=O (single isomer, unassigned) ... < 0.4 mg/L
CCCCCN1CCN(C(=O)NC(C(=O)NC2C(=O)N3C2SC(C)(C)C3C(=O)O)c2ccccc2)C(=O)C1=O (single isomer, unassigned) ... < 0.1 mg/L
CCCN1CCN(C(=O)NC(C(=O)NC2C(=O)N3C2SC(C)(C)C3C(=O)O)c2ccccc2)C(=O)C1=O (single isomer, unassigned) ... < 0.1 mg/L

--- query ---
For record CC1(C)SC2C(NC(=O)C(NC(=O)N3CCN(C4CCCC4)C(=O)C3)c3ccccc3)C(=O)N2C1C(=O)O (single isomer, unassigned) the listed MIC Esche--richin coil NIHJ is < 1.57 mg/L

* * *

System: Escherichia coli NIHJ
experiment summary: MIC, plate method, standard strains
Format: cell-based
experimental parameters: Table 4, standard strain; unit assumed
Each entry below carries its reported MIC Escherichia coli NIHJ.

Worked cases, MIC Escherichia coli NIHJ given:
CN1CCN(C(=O)N[C@@H](C(=O)N[C@@H]2C(=O)N3C(C(=O)[O-])=C(C[n+]4ccccc4)CS[C@H]23)c2ccccc2)C(=O)C1=O [Compound No. 68] ... < 0.79 µg/mL
CCN1CCN(C(=O)NC(C(=O)NC2C(=O)N3C(C(=O)O)=C(COC(C)=O)CSC23)c2ccc(O)cc2)C(=O)C1=O (single isomer, unassigned) [Compound No. 81] ... < 1.57 µg/mL

Proceeding to the next molecule to report its MIC Escherichia coli NIHJ.
So, CCN1CCN(C(=O)NC(C(=O)NC2C(=O)N3C(C(=O)O)=C(COC)CSC23)c2ccccc2)C(=O)C1=O (single isomer, unassigned) [compound 80] ? Its MIC Escherichia coli NIHJ was < 0.1 µg/mL

* * *

System: Shigella sonnei
experiment summary: MIC against clinical isolates
Type: cell-based
experimental parameters: Table 5-5, clinical isolate; unit assumed
endpoint: MIC Shigella sonnei JS 11232 (µg/mL)
Value expressed in µg/mL; do not type the unit.

// CCCCCCN1CCN(C(=O)NC(C(=O)NC2C(=O)N3C2SC(C)(C)C3C(=O)O)c2ccccc2)C(=O)C1=O (single isomer, unassigned) [Compound 46] : MIC Shigella sonnei JS 11232 value = 12.5

* * *

Test system: Klebsiella pneumoniae
experiment summary: MIC against clinical isolates
Type: cell-based
experimental parameters: Table 6-4, clinical isolate; unit assumed
endpoint: MIC Klebsiella pneumoniae GN 917 (µg/mL)
Give the value in µg/mL but do not write µg/mL after it.

// worked examples, MIC Klebsiella pneumoniae GN 917 included
CCN1CCN(C(=O)NC(C(=O)NC2C(=O)N3C(C(=O)O)=C(CSc4nnnn4CC)CSC23)c2ccc(O)cc2)C(=O)C1=O (single isomer, unassigned) ... 0.39
Cn1nnnc1SCC1=C(C(=O)O)N2C(=O)C(NC(=O)C(NC(=O)N3CCN(CCO)C(=O)C3=O)c3ccccc3)C2SC1 (single isomer, unassigned) ... 1.56
CC(=O)OCC1=C(C(=O)O)N2C(=O)[C@@H](NC(=O)Cc3cccs3)[C@H]2SC1 [Sodium Cephalothin, reference compound] ... 3.13
CCN1CCN(C(=O)NC(C(=O)NC2C(=O)N3C(C(=O)O)=C(CSc4nncs4)CSC23)c2ccc(O)cc2)C(=O)C1=O (single isomer, unassigned) ... 0.78

Here is another compound to look at.
For this compound ( CCN1CCN(C(=O)NC(C(=O)NC2C(=O)N3C(C(=O)O)=C(CSc4nnnn4C)CSC23)c2ccc(O)cc2)C(=O)C1=O (centres unmarked) ), measured MIC Klebsiella pneumoniae GN 917 is 0.2
